System: LOX IMVI melanoma
test: NCI-60 one-dose screen, 48 h (100 = growth as untreated, 0 = no growth, -100 = all killed)
test.context: 10 µM unless noted
Compounds without any hit were thinned out: in the full panel of roughly 83,000, 20% have a hit.
So basically every entry gets a class from its growth, ranges being class 0 = under 40%, class 1 = from 40% up to 90%, class 2 = 90% and over

{"columns": ["chem.smiles", "class"],
 "data": [
  ["Cn1c(O)c(C=NCCN=Cc2c(O)n(C)c(=O)n(C)c2=O)c(=O)n(C)c1=O", "class 2"],
  ["COc1ccc(Cc2cc(-c3ccccc3)nn(Cc3ccccc3)c2=O)cc1OC", "class 1"],
  ["N#C/C(=C/c1ccc([N+](=O)[O-])cc1)n1nnc2cc(F)c(F)cc21", "class 1"],
  ["CC1(C)CC[C@]2(c3nnc(-c4ccncc4)o3)CC[C@H]3C(=CC[C@H]4[C@@]3(C)CC[C@H]3C(C)(C)C(=O)CC[C@]43C)[C@@H]2C1", "class 1"],
  ["CCCCCCCCCCCCCCCCCCOc1ccccc1CC(=O)OCC[N+]1(C)CCCC1", "class 0"],
  ["CCCCC(=O)c1ccco1", "class 2"],
  ["CCOC(=O)CSc1ncnc2c1c(-c1ccccc1)c(-c1ccccc1)n2-c1ccc(C)cc1", "class 1"],
  ["CC(C)CCC[C@@H](C)[C@H]1CC[C@H]2[C@@H]3CC=C4C[C@@H](C(C(=O)O)C(=O)O)CC[C@]4(C)[C@H]3CC[C@]12C", "class 0"],
  ["C1=C(N2CCCC2)CCC1", "class 2"]
]}

Reference source: PubChem BioAssay (NCI)
